biological target: HLA-B*27:05; assay: IEDB peptide-MHC binding, purified MHC/direct/fluorescence; filed as Kd, often an IC50 or EC50 that approximates it; bounds were set here for any values at or beyond the usual limits of such assays; details: source organism: Corynebacterium glutamicum
pKd: −log10 of the molar value.
assay endpoint: pKd

Recorded pKd (sequence YELLRYNEY ): ≤ 4.70

====

molecular target: HLA-B*39:01; experiment: IEDB peptide-MHC binding, purified MHC/competitive/fluorescence; filed as Kd, often an IC50 or EC50 that approximates it; bounds were set here for any values at or beyond the usual limits of such assays; settings: source organism: Reston ebolavirus
assay endpoint: Kd

Recorded Kd (sequence RRELSKEKL ): ≥ 20 µM

====

molecular target: HLA-B*58:01; assay: IEDB peptide-MHC binding, purified MHC/direct/fluorescence; filed as Kd, often an IC50 or EC50 that approximates it; bounds were set here for any values at or beyond the usual limits of such assays; settings: source organism: Vibrio vulnificus
assay endpoint: Kd

Recorded Kd (sequence KVMALPIPH ): ≥ 20 µM

====

target: HLA-B*46:01; assay: IEDB peptide-MHC binding, purified MHC/competitive/fluorescence; filed as Kd, often an IC50 or EC50 that approximates it; bounds were set here for any values at or beyond the usual limits of such assays; conditions: source organism: Bacillus anthracis str. A0488
pKd: −log10 of the molar value.
assay endpoint: pKd

Recorded pKd (sequence KLWASFFQG ): ≤ 4.70

====

molecular target: HLA-B*08:01; experiment: IEDB peptide-MHC binding, purified MHC/competitive/fluorescence; filed as Kd, often an IC50 or EC50 that approximates it; bounds were set here for any values at or beyond the usual limits of such assays; conditions: source organism: Entamoeba histolytica HM-1:IMSS
pKd: −log10 of the molar value.
assay endpoint: pKd

I looked up EVRKAIEFV and its pKd for HLA-B*08:01 was ≤ 5.30

====

biological target: HLA-A*02:03; assay: IEDB peptide-MHC binding, purified MHC/direct/fluorescence; filed as Kd, often an IC50 or EC50 that approximates it; bounds were set here for any values at or beyond the usual limits of such assays; settings: source organism: Variola virus
assay endpoint: Kd

Recorded Kd (sequence HMIDKLFYV ): ≤ 1 nM

====

target: HLA-A*69:01; experiment: IEDB peptide-MHC binding, purified MHC/competitive/fluorescence; filed as Kd, often an IC50 or EC50 that approximates it; bounds were set here for any values at or beyond the usual limits of such assays; conditions: source organism: Mycobacterium tuberculosis variant bovis BCG str. Pasteur 1173P2
pKd: −log10 of the molar value.
assay endpoint: pKd

Recorded pKd (sequence ATADLELAY ): ≤ 4.70

====

molecular target: HLA-B*51:01; assay: IEDB peptide-MHC binding, purified MHC/competitive/fluorescence; filed as Kd, often an IC50 or EC50 that approximates it; bounds were set here for any values at or beyond the usual limits of such assays; conditions: source organism: Reston ebolavirus
assay endpoint: Kd

Recorded Kd (sequence RRELSKEKL ): ≥ 20 µM

====

target: HLA-A*26:01; test: IEDB peptide-MHC binding, purified MHC/competitive/radioactivity; filed as Kd, often an IC50 or EC50 that approximates it; bounds were set here for any values at or beyond the usual limits of such assays; conditions: source organism: Lymphocytic choriomeningitis virus (strain Armstrong)
assay endpoint: Kd (µM)
Write it as a number; the unit µM goes unstated.

I looked up CSANNSHHY and its Kd for HLA-A*26:01 was 8.05

I looked up STAPSSPPPY and its Kd for HLA-A*26:01 was 8.26

====

target: HLA-A*69:01; assay: IEDB peptide-MHC binding, purified MHC/competitive/fluorescence; filed as Kd, often an IC50 or EC50 that approximates it; bounds were set here for any values at or beyond the usual limits of such assays; conditions: source organism: Fowlpox virus
assay endpoint: Kd

Recorded Kd (sequence VIMWYNYLF ): ≥ 20 µM

====

target: HLA-C*15:02; test: IEDB peptide-MHC binding, purified MHC/direct/fluorescence; filed as Kd, often an IC50 or EC50 that approximates it; bounds were set here for any values at or beyond the usual limits of such assays; details: source organism: Homo sapiens
pKd: −log10 of the molar value.
assay endpoint: pKd

Recorded pKd (sequence YTASVVAAY ): ≤ 4.70

====

I'd appreciate it if you could supply pIC50 values for the items below.
target: HLA-A*02:01; assay: IEDB peptide-MHC binding, purified MHC/competitive/fluorescence; bounds were set here for any values at or beyond the usual limits of such assays; conditions: source organism: Vaccinia virus WR
# reply with the number alone; pIC50 is -log10 of concentration in mol/L

I looked up YGLVSKFMS and its pIC50 for HLA-A*02:01 was 4.59

I looked up IGIEILNTI and its pIC50 for HLA-A*02:01 was 6.15

====

target: HLA-B*15:01; assay: IEDB peptide-MHC binding, purified MHC/direct/fluorescence; filed as Kd, often an IC50 or EC50 that approximates it; bounds were set here for any values at or beyond the usual limits of such assays; details: source organism: Toxoplasma gondii RH
assay endpoint: Kd

I looked up THADAHTQL and its Kd for HLA-B*15:01 was ≥ 20 µM

====

biological target: HLA-A*02:01; assay: IEDB peptide-MHC binding, purified MHC/direct/fluorescence; filed as Kd, often an IC50 or EC50 that approximates it; bounds were set here for any values at or beyond the usual limits of such assays; conditions: source organism: Yersinia pestis
I'd appreciate it if you could supply pKd values for the items below.
# reply with the number alone; pKd is -log10 of concentration in mol/L

Recorded pKd (sequence YGIPFPGSL ): 4.85

Recorded pKd (sequence FLEQGGFKA ): 7.19

====

molecular target: HLA-A*26:01; assay: IEDB peptide-MHC binding, purified MHC/competitive/radioactivity; filed as Kd, often an IC50 or EC50 that approximates it; bounds were set here for any values at or beyond the usual limits of such assays; conditions: source organism: Mammarenavirus juninense
pKd: −log10 of the molar value.
assay endpoint: pKd

Recorded pKd (sequence KTGEKSRCY ): ≤ 4.11

Recorded pKd (sequence LYIKDIFTR ): ≤ 4.11

====

target: HLA-A*02:01; test: IEDB peptide-MHC binding, purified MHC/direct/fluorescence; filed as Kd, often an IC50 or EC50 that approximates it; bounds were set here for any values at or beyond the usual limits of such assays; details: source organism: Pseudomonas savastanoi
pKd: −log10 of the molar value.
assay endpoint: pKd

Recorded pKd (sequence TYYPQVVLG ): ≤ 4.70

====

target: HLA-B*40:01; experiment: IEDB peptide-MHC binding, purified MHC/direct/fluorescence; filed as Kd, often an IC50 or EC50 that approximates it; bounds were set here for any values at or beyond the usual limits of such assays; details: source organism: Ebola virus - Eckron (Zaire, 1976)
assay endpoint: Kd

Recorded Kd (sequence KEGKLQCRI ): ≥ 20 µM

====

biological target: HLA-B*39:01; assay: IEDB peptide-MHC binding, purified MHC/competitive/fluorescence; filed as Kd, often an IC50 or EC50 that approximates it; bounds were set here for any values at or beyond the usual limits of such assays; conditions: source organism: Camelpox virus CMS
assay endpoint: Kd

Recorded Kd (sequence WVIDTLNGI ): ≥ 20 µM

====

molecular target: HLA-A*02:01; test: IEDB peptide-MHC binding, purified MHC/competitive/fluorescence; filed as Kd, often an IC50 or EC50 that approximates it; bounds were set here for any values at or beyond the usual limits of such assays; settings: source organism: Variola virus
I'd appreciate it if you could supply pKd values for the items below.
# reply with the number alone; pKd is -log10 of concentration in mol/L

Recorded pKd (sequence FLTSVINRV ): 8.46

Recorded pKd (sequence FIFLKKNEL ): 5.52

====

biological target: HLA-A*23:01; assay: IEDB peptide-MHC binding, purified MHC/direct/fluorescence; filed as Kd, often an IC50 or EC50 that approximates it; bounds were set here for any values at or beyond the usual limits of such assays; conditions: source organism: Zaire ebolavirus
pKd: −log10 of the molar value.
I'd appreciate it if you could supply pKd values for the items below.

Recorded pKd (sequence RDRFKRTSF ): ≤ 4.70

Recorded pKd (sequence KEGKLQCRI ): ≤ 4.70

Recorded pKd (sequence HPLARTAKV ): ≤ 4.70

====

target: HLA-A*32:01; test: IEDB peptide-MHC binding, purified MHC/competitive/radioactivity; filed as Kd, often an IC50 or EC50 that approximates it; bounds were set here for any values at or beyond the usual limits of such assays; settings: source organism: Dengue virus 3 Singapore/8120/1995
assay endpoint: pKd
# reply with the number alone; pKd is -log10 of concentration in mol/L

Recorded pKd (sequence VLFTFVLLL ): 6.31

====

molecular target: HLA-A*11:01; assay: IEDB peptide-MHC binding, purified MHC/direct/fluorescence; filed as Kd, often an IC50 or EC50 that approximates it; bounds were set here for any values at or beyond the usual limits of such assays; details: source organism: Mycobacterium tuberculosis C
assay endpoint: Kd

Recorded Kd (sequence TPKIRFWHV ): ≥ 20 µM
